- Tested on: Saccharomyces cerevisiae
- Experiment description: protein stability index of tFT-peptide fusion (C-terminal peptide) (PSI (0-1 scale)); higher = more stable (slower turnover);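 also: PSI is a weighted mean of sequencing reads over stability bins, variants kept only with over 10 reads, mCherry proximal and sfGFP distal, peptide attached via GGGS linker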
- Test parameters: genetic background: wild type; temperature: 37 C
Parameter measured: protein stability index
Just the number.

- Sequence text: "PCVCFIILGMLS"
  protein stability index: 0.52

Now for the sequence whose protein stability index we want.
Q: Need protein stability index of "PLPSFLYFILLR" , thanks.
Ans: 0.359

----------
- Test system: Saccharomyces cerevisiae
- Experiment description: protein stability index of tFT-peptide fusion (C-terminal peptide) (PSI (0-1 scale)); higher = more stable (slower turnover)
- Test parameters: genetic background: wild type; temperature: 30 C
Measured protein stability index, listed per entry for reference.
The answer should be written as a number, with no unit following it.

Please review the entries below; each comes with its answer.
- Sequence text: "ACDVPSERAVSG"
  protein stability index: 0.628
- Sequence text: "QWIINVSRSIRK"
  protein stability index: 0.654
- Sequence text: "LWLLVAPGPPAQ"
  protein stability index: 0.682
- Sequence text: "VVLVGVVGGMVG"
  protein stability index: 0.639

Q: Could you share which protein stability index value was measured for "TSKGLGSRSAHP" ?
Ans: 0.665

Q: Another sequence to look at: "REGPSPLDPSRF"
Ans: 0.684

Q: Follow-up item: "CLPFSCFLLTPR"
Ans: 0.692

----------
- Tested on: Saccharomyces cerevisiae
- Experiment description: protein stability index of tFT-peptide fusion (C-terminal peptide) (PSI (0-1 scale)); higher = more stable (slower turnover)
- Test parameters: genetic background: cdc53-1; temperature: 37 C
Parameter measured: protein stability index
No unit in the answer, only the number.

Solved entries:
- Sequence text: "RGCLVHSGFFIV"
  Target of assay: "Saccharomyces cerevisiae"
  protein stability index: 0.683
- Sequence text: "VGVSCLVFFGVV"
  Target of assay: "Saccharomyces cerevisiae"
  protein stability index: 0.653
- Sequence text: "SGFLNVGYLWVC"
  Target of assay: "Saccharomyces cerevisiae"
  protein stability index: 0.635
- Sequence text: "FCIFAMQICTSA"
  Target of assay: "Saccharomyces cerevisiae"
  protein stability index: 0.173
- Sequence text: "KKKKQKKNNNKR"
  Target of assay: "Saccharomyces cerevisiae"
  protein stability index: 0.687
- Sequence text: "DLLKAILKIKSL"
  Target of assay: "Saccharomyces cerevisiae"
  protein stability index: 0.704
- Sequence text: "CVSFFRCLFLIV"
  Target of assay: "Saccharomyces cerevisiae"
  protein stability index: 0.231
- Sequence text: "PLRRPPPRPPWP"
  Target of assay: "Saccharomyces cerevisiae"
  protein stability index: 0.705

# input for lookup
Q: What measured protein stability index goes with "VFSFLYHVVPVL" ?
Ans: 0.49

----------
- Tested on: Saccharomyces cerevisiae
- Experiment description: protein stability index of tFT-peptide fusion (C-terminal peptide) (PSI (0-1 scale)); higher = more stable (slower turnover)
- Test parameters: genetic background: wild type; temperature: 30 C
Catalogue of protein stability index values
Write the value as a bare number.

- Sequence text: "PRASSPPPPTAS"
  protein stability index: 0.666
- Sequence text: "PRDSPPPPPPPP"
  protein stability index: 0.699
- Sequence text: "SSPSPPSSSSFP"
  protein stability index: 0.639
- Sequence text: "ANVRTCCTSVPV"
  protein stability index: 0.652
- Sequence text: "LSSARPMNLPPG"
  protein stability index: 0.67

Q: I have this sequence here, "VVRGKRRVRWLR" , and I need its recorded protein stability index.
Ans: 0.625

Q: What do we get for "SNQRQRETKREE" ?
Ans: 0.677

Ref: the supplement of paper PMC10724198
